Where do these numbers come from? They come from patent US20190053492A1.

Assay: log P by HPLC on reversed-phase column (C 18), EEC Directive 79/831 Annex V.A8
Assay type: physicochemical
Conditions: log P (HCOOH), acidic range at pH 2.7, 0.1% aqueous formic acid and acetonitrile; HPLC on reversed-phase column (C 18), 55° C.
Experimental: Temperature: 55° C. […] Called log P (HCOOH) in the table. […] Called log P (neutral) in the table.
measuredQuantity: LOGP_HCOOH

O=C(NC1CCOC1=O)c1cc(-c2ccc(OC(F)(F)F)cc2)cc(NC(=O)C2CC2)n1 (stereo not shown) | 3.11
CCCCNC(=O)c1cc(-c2ccc(OC(F)(F)F)cc2)cc(NC(=O)C2CC2)n1 | 4.18
COCCNC(=O)c1cc(-c2ccc(OC(F)(F)F)cc2)cc(NC(=O)C2CC2)n1 | 3.29
N#Cc1ccc(CNC(=O)c2cc(-c3cc(F)c(OC(F)F)c(F)c3)cc(NC(=O)C3CC3)n2)cc1 | 3.46

###

tested on: Phaedon cochleariae; experiment: Phaedon cochleariae spray test; format: in vivo; conditions: application rate 500 g/ha, after 7 days, Chinese cabbage leaf discs
measuredQuantity: efficacy (beetle larvae killed) (%)
Unit % implied. Number only.

The following compounds have reported results that may help.
CC(C)C(=O)Nc1cc(-c2ccc(OC(F)(F)F)cc2)cc(C(=O)NCc2cc(F)c(C#N)cc2F)n1 | 100
CC(C)C(=O)Nc1cc(-c2ccc(C(F)(F)F)cc2)cc(C(=O)NC(C)c2ccc(C#N)cc2)n1 (stereo not shown) | 83
N#Cc1ccc(CNC(=O)c2cc(-c3ccc(N(C(F)(F)F)C(F)(F)F)cc3)cc(NC(=O)C3CC3)n2)cc1 | 100

Turning now to a further compound:
Q: Test system Phaedon cochleariae; read-out efficacy (beetle larvae killed); what value for O=C(NCC1CC1)c1cc(-c2ccc(C(F)(F)F)cc2)cc(NC(=O)C2CC2)n1 ?
Ans: 100

###

tested on: Phaedon cochleariae; experiment: Phaedon cochleariae spray test; format: in vivo; details: application rate 500 g/ha, after 7 days, Chinese cabbage leaf discs
# key: entry, value: efficacy (beetle larvae killed)
Provide the reading as a plain figure in %.

Sample records with efficacy (beetle larvae killed):
N#Cc1ccc(CNC(=O)c2cc(-c3ccc(C(F)(F)F)c(F)c3)cc(NC(=O)C3CC3)n2)cc1 | 100
CC(NC(=O)c1cc(-c2ccc(C(F)(F)F)cc2)cc(NC(=O)C2CC2)n1)C1CC1 (stereo not shown) | 100
O=C(NCc1ccc2c(c1)OC(F)(F)O2)c1cc(-c2ccc(OC(F)(F)F)cc2)cc(NC(=O)C2CC2)n1 | 83

Alright, here's another molecule for you.
Q: // returns reported efficacy (beetle larvae killed) for input N#Cc1ccc(CNC(=O)c2cc(-c3ccc(OC(F)(F)C(F)C(F)(F)F)cc3)cc(NC(=O)C3CC3)n2)cc1 (stereo not shown)
Ans: 100

###

assay: log P by HPLC on reversed-phase column (C 18), EEC Directive 79/831 Annex V.A8; format: physicochemical; conditions: log P, neutral range; HPLC on reversed-phase column (C 18), 55° C.
measuredQuantity: LOGP_NEUTRAL

N#CC1CCC(CNC(=O)c2cc(-c3ccc(C(F)(F)C(F)(F)F)cc3)cc(NC(=O)C3CC3)n2)CC1 (centres unmarked) | 4.08
CN(C(=O)c1cc(-c2ccc(C(F)(F)F)cc2)cc(NC(=O)C2CC2)n1)C1CC1 | 3.21

A = O=C(NCc1ccc([N+](=O)[O-])cc1)c1cc(-c2ccc(C(F)(F)C(F)(F)F)c(F)c2)cc(NC(=O)C2CC2)n1
B = O=C(NCc1ccccn1)c1cc(-c2ccc(C(F)(F)F)cc2)cc(NC(=O)C2CC2)n1
Q: Looking at recorded values for LOGP_NEUTRAL, does A or B come in lower? Give the label of your selection.
Ans: B
(B: 2.75, A: 4.33)

P = O=C(NCc1cccc(Cl)c1)c1cc(-c2ccc(C(F)(F)F)cc2)cc(NC(=O)C2CC2)n1
Q = N#CCNC(=O)c1cc(-c2ccc(C(F)(F)F)cc2)cc(NC(=O)C2CC2)n1
Q: Kindly identify the item with the lower LOGP_NEUTRAL figure among these two: P and Q // respond with label for picked entry
Ans: Q

I = N#Cc1ccc(CNC(=S)c2cc(-c3ccc(OC(F)(F)F)cc3)cc(NC(=S)C3CC3)n2)cc1
II = N#Cc1ccc(CNC(=O)c2cc(-n3ccc(C(F)(F)C(F)(F)F)n3)cc(NC(=O)C3CC3)n2)cc1
III = N#Cc1ccc(CNC(=O)c2cc(-c3ccc([S+]([O-])C(F)F)cc3)cc(NC(=O)C3CC3)n2)cc1 (centres unmarked)
Q: Output the entries ranked by LOGP_NEUTRAL from maximum down to minimum. Answer by writing out the labels in the requested order.
Ans: I, II, III
(I: 5.43, II: 3.57, III: 2.47)
